Origin of values: patent US9611221B2

This section lists IC50 readings for JMJD2C (Homo sapiens (Human)).

CC1(CNc2cnccc2C(=O)O)CCCc2ccccc21 (stereo not shown) has a reported IC50 of 100 to 1000 nM

Documented IC50 of O=C(O)c1ccncc1NCC1CCCc2c(Oc3ccccc3)cccc21 (stereo not shown) : 1000 to 10000 nM

Record `O=C(O)c1ccncc1NC[C@H]1CCOc2cc(-c3ccccc3F)ccc21` . Reported IC50: 100 to 1000 nM

IC50 measured on `O=C(O)c1ccncc1NC[C@H]1CCCc2cc(OCCC3CC3)ccc21` = 100 to 1000 nM

Notebook: `O=C(O)c1ccncc1NCc1ccc(C(F)(F)F)cc1` , IC50 read as ≤ 100 nM

What the record says about `O=C(O)c1ccncc1NCc1ccccc1C1CC1` : IC50 is ≤ 100 nM

Documented IC50 of O=C(O)c1ccncc1NCC1Cc2ccccc2O1 (stereo not shown) : ≤ 100 nM

Value of measured IC50 for the entry `O=C(O)c1ccncc1NCc1ccccc1Oc1ccccc1` : 100 to 1000 nM

Per the record, `O=C(O)c1ccncc1NCc1ccc(Cl)cc1` has IC50 of ≤ 100 nM

Entry `Nc1ccccc1CNc1cnccc1C(=O)O` ; IC50 = ≤ 100 nM

get_value(item= `Cc1ccc(C2CC2)c(CNc2cnccc2C(=O)O)c1` , readout=IC50) returns 100 to 1000 nM

Memo: O=C(O)c1ccncc1NCC1CCCc2ccc(Cl)cc21 (stereo not shown) , reported IC50: 100 to 1000 nM

Sample CC1(C)CCC(CNc2cnccc2C(=O)O)c2ccccc21 (stereo not shown) ; IC50 observed: 100 to 1000 nM

Memo: `O=C(O)c1ccncc1NC[C@@H]1CCOc2cc(-c3ccccc3F)ccc21` , reported IC50: 1000 to 10000 nM

// IC50 value for `O=C(O)c1ccncc1NCC1=CCCc2ccc(F)cc21` : 100 to 1000 nM

Reported IC50 of O=C(O)c1ccncc1NCC1CCCc2cc(OCCC(F)(F)F)ccc21 (stereo not shown) : 100 to 1000 nM

// IC50 value for `O=C(O)c1ccncc1NCc1cccc(OC(F)(F)F)c1` : 100 to 1000 nM

// recorded IC50 for `O=C(O)c1ccnnc1NCc1ccccc1` : ≤ 100 nM

The recorded IC50 for entry O=C(O)c1ccncc1NCC1CCOc2cc(-c3ccccc3)ccc21 (stereo not shown) equals 100 to 1000 nM
